Some compounds, each annotated with its measured pEC50.
System: Poliovirus 1 (PV1)
Test: microbe, parasite or virus in culture
Assay type: cell-based, Human enterovirus C
Conditions: Enterovirus C, read-out: EC50, replication of Poliovirus 1 (PV1)
Kindly note that pEC50 refers to -log10 of the concentration in mol/L and answer with the value alone.

Completed entries (count: 2):
CC(C)S(=O)(=O)n1c(N)nc2ccc(/C(=N/O)c3ccccc3)cc21 | 6.10
CCOC(=O)/C=C/[C@H](C[C@@H]1CCNC1=O)NC(=O)[C@@H](CC(=O)[C@@H](NC(=O)c1cc(C)on1)C(C)C)Cc1ccc(F)cc1 | 5.35

Next up:
Find the recorded pEC50 belonging to `COc1ccc(OCc2ccc(COc3c(Cl)cccc3Cl)cc2)c(Cl)c1` and report it.
7.59

Numbers sourced from patent US8796273B2.
